Reference source: ChEMBL document CHEMBL1201862

// reported GI50 per item
Tested on: COLO 205
Test: NCI tumour cell line growth inhibition, 48 h
The source made the active and inactive calls. No stated cut-off is given here; in the data, active = GI50 up to about 1.1 µM and inactive = higher.
Measure: GI50

Compound | Tested system | Val
CCOC(=O)c1c(CN2CCCC2)n(-c2ccccc2)c2cc(Br)c(OC)cc12 | COLO 205 | 11.8 µM (inactive)
C=C(C(=C)P(=S)(C(C)C)C(C)C)P(=S)(C(C)C)C(C)C | COLO 205 | > 100 µM (inactive)
CC(=O)c1c(-c2ccc(Cl)cc2)c(C#N)c(=S)n(C2OC(CO)C(O)C(O)C2O)c1C (stereo not given) | COLO 205 | 32.5 µM (inactive)
COc1cc(C2S/C(=C/c3ccccc3)C(=O)N2c2ccccc2Cl)cc(OC)c1OC (stereo not given) | COLO 205 | 33.3 µM (inactive)
O=C(CC1(O)C(=O)Nc2c(Cl)ccc(Cl)c21)c1ccc(Cl)cc1 (stereo not given) | COLO 205 | 18.6 µM (inactive)
CC(=O)Oc1ccc(/C=C/C(=O)NCC(NC(=O)/C=C/c2ccc(OC(C)=O)c(OC(C)=O)c2)C(=O)O)cc1OC(C)=O (stereo not given) | COLO 205 | > 100 µM (inactive)
Cc1cc2c(c(=O)n1C)SCC2 | COLO 205 | > 100 µM (inactive)
CC(C)=CC(=O)c1[nH]c2ccccc2c1CC(=O)NCCc1cn(C(c2ccccc2)(c2ccccc2)c2ccccc2)cn1 | COLO 205 | 1.81 µM (inactive)
Nc1nc(Cl)nc2c1ncn2C1CC(O)C(CO)O1 (stereo not given) | COLO 205 | 33.4 µM (inactive)
CC(=O)c1ccc2c3c1O[C@H]1c4[nH]c5ccccc5c4C[C@@]4(O)[C@@H](C2)N(CC2CC2)CC[C@]314 | COLO 205 | 14.9 µM (inactive)
CC(=O)O[C@@H]1C2=C(C)C=C(O2)[C@H]2O[C@]2(C)C[C@H]2C=C(C(=O)O2)[C@H](OC(C)=O)CC1[C@@]1(C)CO1 (stereo not given in full) | COLO 205 | 14.1 µM (inactive)
Cc1[nH]c2ccccc2c1/C=N/c1ccc(/N=C/c2c(C)[nH]c3ccccc23)cc1 | COLO 205 | 12.9 µM (inactive)
Cc1ccc(C2=Nc3ccccc3[S+]([O-])C(c3ccc4c(c3)OCO4)C2)cc1 (stereo not given) | COLO 205 | 29.6 µM (inactive)
O=[N+]([O-])/C(C(Cl)=C(Cl)Cl)=C(\Nc1ccccc1)n1nnc2ccccc21 | COLO 205 | 27 µM (inactive)
CCN(CC)c1cccc2c1C1(O)CCC3(CC21)OCCCCO3 (stereo not given) | COLO 205 | > 100 µM (inactive)
Clc1nc2c(C#Cc3ccccc3)ncnc2n1C1CCCCO1 (stereo not given) | COLO 205 | 15.4 µM (inactive)
CC1(C)OC(=O)CC12CCN(Cc1ccccc1)CC2 | COLO 205 | > 100 µM (inactive)
CC(=O)O[C@H]1C(=O)[C@@]2(C)[C@H]([C@H](OC(=O)c3ccccc3)[C@@]3(O)C[C@H](O)C(C)=C1C3(C)C)[C@]1(OC(C)=O)CO[C@@H]1C[C@@H]2O | COLO 205 | 26.5 µM (inactive)
Cc1nc2ccc(NC3OC(CO)C(O)C(O)C3O)cc2c(=O)n1-c1ccccc1 (stereo not given) | COLO 205 | > 100 µM (inactive)
O=C1C(Cl)C2(CC(/C=C/c3ccccc3Cl)=NN2c2cccc(S(=O)(=O)O)c2)N1c1nc2ccccc2s1 (stereo not given) | COLO 205 | > 100 µM (inactive)
